# study system: UniProtKB P51681
# Sequence (P51681 whole entry, species assumed): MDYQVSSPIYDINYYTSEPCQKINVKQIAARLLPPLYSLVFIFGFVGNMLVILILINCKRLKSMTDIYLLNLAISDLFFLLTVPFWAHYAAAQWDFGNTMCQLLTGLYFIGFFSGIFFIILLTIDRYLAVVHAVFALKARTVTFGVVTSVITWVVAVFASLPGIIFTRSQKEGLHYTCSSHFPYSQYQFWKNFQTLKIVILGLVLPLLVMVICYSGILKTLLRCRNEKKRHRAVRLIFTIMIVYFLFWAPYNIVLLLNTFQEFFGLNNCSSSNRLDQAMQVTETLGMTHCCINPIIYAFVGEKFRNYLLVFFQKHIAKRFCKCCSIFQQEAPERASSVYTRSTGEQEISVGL
# test summary: CCR5 in vitro test: intracellular calcium signal detected by FLIPR
# test context: HEK293 cells expressing CCR5, agonist RANTES at EC80, calcium signal
# Method: Experimental Example 1: CCR2/CCR5 In Vitro Test The intracellular calcium signal was detected by FLIPR, and the IC50 value of the compound was used as an index to evaluate the inhibitory effect of the compound on CCR2 and CCR5 receptors. 1. Cell line: The cells were inoculated and incubated in a 5% CO2 incubator at 37° C. overnight. CCR2/CCR5 density: 1 M (20 k/well) 2. Reagents: Fluo-4 Direct, (Invitrogen, Cat #F10471) […]
attribute measured: IC50 (nM)

>>> measured_value("CCCCOCCOc1ccc(-c2cc(Cl)c(OC)c(/C=C/C(=O)Nc3ccc([S@@+]([O-])Cc4cncn4CCC)cc3)c2)cc1")
1.3

A. CCCCOCCOc1ccc(-c2ccc(OC(F)F)c(/C=C/C(=O)Nc3ccc([S@@+]([O-])Cc4cncn4CCC)cc3)c2)cc1
B. CCCCOCCOc1ccc(-c2ccc(C3CCCC3)c(/C=C/C(=O)Nc3ccc([S@+]([O-])Cc4c(C)ncn4CC)cc3)c2)cc1
Inquiry: Select the item whose IC50 value is smaller, choosing between A and B . Return value: the label identifying the chosen record.
Reply text: A
